Target: IRAK4 (Homo sapiens, UniProt Q9NWZ3)
Construct: endogenous in cells; host or cells: THP-1 cells
Sequence (Q9NWZ3 whole entry): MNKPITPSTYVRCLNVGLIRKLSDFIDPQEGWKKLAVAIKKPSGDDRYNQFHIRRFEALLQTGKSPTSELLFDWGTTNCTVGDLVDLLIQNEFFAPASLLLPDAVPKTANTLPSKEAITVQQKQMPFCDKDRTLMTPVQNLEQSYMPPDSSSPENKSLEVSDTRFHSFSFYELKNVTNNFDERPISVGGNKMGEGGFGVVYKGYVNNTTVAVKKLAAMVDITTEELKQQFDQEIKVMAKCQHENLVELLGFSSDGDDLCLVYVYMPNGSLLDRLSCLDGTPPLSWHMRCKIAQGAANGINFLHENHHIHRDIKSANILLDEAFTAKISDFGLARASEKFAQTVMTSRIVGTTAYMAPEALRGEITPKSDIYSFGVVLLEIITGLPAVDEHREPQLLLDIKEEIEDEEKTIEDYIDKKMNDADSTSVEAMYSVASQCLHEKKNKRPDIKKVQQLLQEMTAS
Experiment: LVL THP1 HTRF (THP1 Homogeneous Time Resolved Fluorescence)
Type: cell-based
Conditions: THP1 cells, 18 h incubation with compound
observedProperty: LVL THP1 HTRF YMIN (%)

| compound | systemTested | LVL THP1 HTRF YMIN (%) |
| --- | --- | --- |
| CS(=O)(=O)N1CCC(Nc2cc(-n3ncc4cc(C#N)cnc43)ncc2-n2cc([C@H]3CC[C@H](CCN4CCN(c5ccc(C6CCC(=O)NC6=O)cc5)CC4)CC3)nn2)CC1 (some centres unmarked) [P-174] | IRAK4 (Homo sapiens, UniProt Q9NWZ3) | 2.7 |

[1] C[C@H](C#N)Nc1cc(-n2ncc3cc(C#N)cnc32)ncc1C(=O)N[C@H]1CC[C@H](CCN2CC[C@H]3[C@@H]2CCN3c2ccc([C@@]3(C)CCC(=O)NC3=O)cc2)CC1 (single isomer, unassigned) [P-427]
[2] C[C@H](C#N)Nc1cc(-n2ncc3cnc(N)nc32)ncc1-n1cc(C2CCC(CCN3CCN(c4ccc([C@@]5(C)CCC(=O)NC5=O)cc4)CC3)CC2)nn1 (some centres unmarked) [P-228]
[3] C[C@H](C#N)Nc1cc(Nc2ncc(C#N)cn2)ncc1-n1cc([C@H]2CC[C@H](CCN3CCN(c4ccc([C@@]5(C)CCC(=O)NC5=O)cc4)CC3)CC2)nn1 [P-300]
Problem: Form: Sort by [LVL THP1 HTRF YMIN] Order [ ascending ] Quick reminder: the answer is the labels in the order asked.
Result: 1, 2, 3

###

Target: IRAK4 (Homo sapiens)
Construct: endogenous in cells; host or cells: THP-1 cells
Assay: LVL THP1 HTRF (THP1 Homogeneous Time Resolved Fluorescence)
Format: cell-based
Conditions: THP1 cells, 18 h incubation with compound
observedProperty: LVL THP1 HTRF YMIN (%)

| compound | unitSymbol | LVL THP1 HTRF YMIN |
| --- | --- | --- |
| C[C@H](C#N)Nc1cc(-n2ncc3cc(C#N)cnc32)ncc1C(=O)N[C@H]1CC[C@H](CCN2CC3CC2CN3c2ccc(C3CCC(=O)NC3=O)cc2)CC1 (stereo partly drawn) | % | 2.0 |

[A] C[C@H](C#N)Nc1cc(-n2ncc3cc(C#N)c(N)nc32)ncc1-n1cc([C@H]2CC[C@H](CCN3CCN(c4ccc([C@@]5(C)CCC(=O)NC5=O)cn4)[C@@H](C)C3)CC2)nn1 (single isomer, unassigned) [P-258]
[B] N#Cc1cc2cnn(-c3cc(NC4CC4)c(-n4cc([C@H]5CC[C@H](CCN6CCN(c7ccc(C8CCC(=O)NC8=O)cc7)CC6)CC5)nn4)cn3)c2nc1N (stereo partly drawn)
Problem: Please choose the item with the lower LVL THP1 HTRF YMIN value from this pair: A and B Please identify the chosen entry by its label.
Result: B
(B: 0.6%, A: 2.0%)

###

Target: IRAK4 (Homo sapiens, UniProt Q9NWZ3)
Construct: endogenous in cells; host or cells: THP-1 cells
Experiment: LVL THP1 HTRF (THP1 Homogeneous Time Resolved Fluorescence)
Assay type: cell-based
Conditions: THP1 cells, 18 h incubation with compound, read-out: LVL THP1 HTRF EC50
observedProperty: DC50 (µM)

| compound | observedProperty | dataValue |
| --- | --- | --- |
| C[C@H](C#N)Nc1cc(-n2ncc3cc(C#N)cnc32)ncc1-n1cc([C@H]2CC[C@H](CCN3CCC(c4ccc([C@@]5(C)CCC(=O)NC5=O)cc4)C(F)C3)CC2)nn1 (stereo partly drawn) [P-311] | DC50 | 0.003 |
| C[C@H](C#N)Nc1cc(-n2ncc3cc(C#N)c(N)nc32)ncc1-n1cc([C@H]2CC[C@H](CCN3CC[C@H]4[C@@H]3CCN4c3ccc([C@@]4(C)CCC(=O)NC4=O)cc3)CC2)nn1 (single isomer, unassigned) [P-453] | DC50 | 0.0046 |
| C[C@H](C#N)Nc1cc(-n2ncc3cc(C#N)cnc32)ncc1-n1cc([C@H]2CC[C@H](CCN3CC(Oc4ccc(N5CCC(=O)NC5=O)cc4)C3)CC2)nn1 | DC50 | 1 |
| N#Cc1cnc2c(cnn2-c2cc(OC3CC3)c(-n3cc([C@H]4CC[C@H](CCN5CCN(c6ccc(C7CCC(=O)NC7=O)cc6)CC5)CC4)nn3)cn2)c1 (stereo partly drawn) | DC50 | 0.0825 |
| C[C@H](C#N)Nc1cc(-n2ncc3cc(C#N)cnc32)ncc1-n1cc([C@H]2CC[C@H](CCN3CC(c4ccc(N5CCC(=O)NC5=O)cc4)C3)CC2)nn1 | DC50 | 0.263 |
| C[C@H](C#N)Nc1cc(-n2ncc3cc(C#N)cnc32)ncc1-n1cc([C@H]2CC[C@](O)(CCN3CCN(c4ccc([C@@]5(C)CCC(=O)NC5=O)cn4)CC3)CC2)nn1 (single isomer, unassigned) [P-426] | DC50 | 1 |
| C[C@H](C#N)Nc1cc(-n2ncc3cc(C#N)c(N4C[C@H]5C[C@@H]4CO5)nc32)ncc1-n1cc([C@H]2CC[C@H](CCN3CCN(c4ccc([C@@]5(C)CCC(=O)NC5=O)cc4)CC3)CC2)nn1 | DC50 | 0.0118 |
| CCNc1cc(-n2ncc3cc(C#N)cnc32)ncc1-n1cc([C@H]2CC[C@H](CCN3CCN(c4ccc(C5CCC(=O)NC5=O)cc4)CC3)CC2)nn1 (stereo partly drawn) | DC50 | 0.0093 |
| C[C@H](C#N)Nc1cc(-n2ncc3cc(C#N)cnc32)ncc1-n1cc([C@H]2CC[C@H](CCN3CCC(c4ccc([C@@]5(C)CCC(=O)NC5=O)cc4)C(F)(F)C3)CC2)nn1 (single isomer, unassigned) | DC50 | 0.0514 |
| CC[C@H](C#N)Nc1cc(-n2ncc3cc(C#N)cnc32)ncc1-n1cc([C@H]2CC[C@H](CCN3CCN(c4ccc(C5CCC(=O)NC5=O)cc4)CC3)CC2)nn1 (stereo in doubt) | DC50 | 0.0087 |

[a] C[C@H](C#N)Nc1cc(-n2ncc3cc(C#N)cnc32)ncc1C(=O)N[C@H]1CC[C@H](CCN2CCC(c3ccc([C@@]4(C)CCC(=O)NC4=O)cc3)CC2)CC1
[b] C[C@H](C#N)Nc1cc(-n2ncc3cc(C#N)cnc32)ncc1-n1cc([C@H]2CC[C@H](CCN3CC4(CC(c5ccc(N6CCC(=O)NC6=O)cn5)C4)C3)CC2)nn1
[c] C[C@H](C#N)Nc1cc(-n2ncc3cc(C#N)cnc32)ncc1-n1cc([C@H]2CC[C@H](CCN3CCN(c4ccc(N5CCC(=O)NC5=O)c(Cl)c4)[C@H](C)C3)CC2)nn1
[d] C[C@H](C#N)Nc1cc(-n2ncc3cc(C#N)cnc32)ncc1-n1cc(C2CCC(CCN3CCN(c4ccc([C@@]5(C)CCC(=O)NC5=O)cc4)[C@@H](C)C3)CC2)nn1 (stereo partly drawn)
[e] C[C@H](C#N)Nc1cc(-n2ncc3cnc(N)nc32)ncc1-n1cc([C@H]2CC[C@H](CCN3CCN(c4ccc([C@@]5(C)CCC(=O)NC5=O)cc4)CC3)CC2)nn1
Problem: Form: Sort by [DC50] Order [ ascending ] Quick reminder: the answer is the labels in the order asked.
Result: c, a, e, d, b
(c: 0.0004 µM, a: 0.0049 µM, e: 0.009 µM, d: 0.039 µM, b: 0.424 µM)

[1] C[C@H](C#N)Nc1cc(-n2ncc3cc(C#N)cnc32)ncc1-n1cc([C@H]2CC[C@H](CCN3CCC(c4ccc(N5CCC(=O)NC5=O)cc4)C(F)C3)CC2)nn1 (stereo partly drawn) [P-399]
[2] C[C@H](C#N)Nc1cc(-n2ncc3cc(C#N)cnc32)ncc1-n1cc([C@H]2CC[C@H](CCN3CCC(c4ccc(N5CCC(=O)NC5=O)cc4)CC3)CC2)nn1
[3] C[C@H](C#N)Nc1cc(-n2ncc3cc(C#N)cnc32)ncc1C(=O)N[C@H]1CC[C@H](CCN2CCN(c3ccc(C4CCC(=O)NC4=O)cc3)C3(CC3)C2)CC1 (stereo partly drawn)
[4] C[C@H](C#N)Nc1cc(Nc2ncc(C#N)cc2Cl)ncc1-n1cc([C@H]2CC[C@H](CCN3CCN(c4ccc(N5CCC(=O)NC5=O)cc4)[C@H](C)C3)CC2)nn1
Problem: Parameters: sort_field (DC50), sort_dir (desc). Quick reminder: the answer is the labels in the order asked.
Result: 3, 2, 1, 4
(3: 1.79 µM, 2: 0.582 µM, 1: 0.0431 µM, 4: 0.013 µM)

[I] C[C@H](C#N)Nc1cc(-n2ncc3cc(C#N)cnc32)ncc1-n1cc(C2CCC(CCN3CCN(c4ccc(C5CCC(=O)NC5=O)cc4)C4COCC43)CC2)nn1 (single isomer, unassigned) [P-235]
[II] C[C@H](C#N)Nc1cc(-c2ccc3cc(C#N)cnn23)ncc1-n1cc([C@H]2CC[C@H](CCN3CCN(c4ccc([C@@]5(C)CCC(=O)NC5=O)cc4)CC3)CC2)nn1
Problem: Please choose the item with the lower DC50 value from this pair: I and II Please identify the chosen entry by its label.
Result: II
